system: WNV replicon; test: WNV replicon luciferase assay in BHK 26.5 cells (HTS, re-test, IC50); format: cell-based, West Nile virus; conditions: West Nile virus, 24 h
Outcome Measure: pIC50
# log scale: pIC50 equals minus log10 of the concentration in mol/L

The examples below pair each entry with its known result.
Query: Any idea what pIC50 was measured for CCOc1ccc(C(=O)Nc2c3c(nn2-c2ccc(OC)cc2)CSC3)cc1OCC [Compound 253-H8] ?
Reply: 5.00

Query: Now the compound COc1ccc(-n2nc3c(c2NC(=O)c2ccc(OC(C)C)cc2)CSC3)cc1 [Compound 253-F8]
Reply: 5.00

Query: Now the compound O=C1Nc2ccc(S(=O)(=O)Nc3cc(Cl)ccc3Cl)c3cccc1c23 [Compound 24-C10]
Reply: 5.00

Query: Now the compound COc1ccc(CCC(=O)Nc2ccc(C(=N)NO)cc2)cc1 [Compound 331-E11]
Reply: 5.30

Query: Now the compound O=C(Nc1c2c(nn1-c1ccc(F)cc1)CSC2)c1ccc2c(c1)OCO2 [Compound 253-F11]
Reply: 5.00

Query: Now the compound COc1ccc(-n2nc3c(c2NC(=O)c2ccc4c(c2)OCO4)CSC3)cc1 [Compound 253-G8]
Reply: 5.60

Query: Now the compound CCOC(=O)c1cnc2ccc(OCC)cc2c1NCc1ccccc1 [Compound 63-C10]
Reply: 5.30

Query: Now the compound Cc1cc(C)c2nc(NC3=NC(c4ccccc4)CC(=O)N3)nc(C)c2c1 (stereo not drawn) [Compound 50-A8]
Reply: 5.30

Continue with the next compound.
Query: Any idea what pIC50 was measured for Cc1ccc(-n2nc3c(c2NC(=O)C2CC2)CSC3)c(C)c1 [Compound 20-E7] ?
Reply: 5.00
